# Run description: small-molecule microarray binders of probe aWnt5a, primary screen, biochemical, biotinylated probe, 635/667 nm fluorescence (AID 1113);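 note: score merges 667 nm fluorescence intensity with signal-to-noise per printed feature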
# Condition summary: higher = more signal
Parameter measured: composite z-score
Lab note: write the figure by itself, no unit.

In: // query composite z-score value for entry C[C@@H]1CC[C@@H](C(=O)O)N[C@H]1c1ccc(-c2ccco2)cc1
Out: -0.096

In: # get_value(readout='composite z-score', item= COC(=O)[C@H](C)NC(=O)CCC1CC(OC(=O)NCCc2ccc(F)cc2)CC2(CCCC(COC(=O)NCCCN3CCCC3=O)O2)O1 (some centres undefined) )
Out: -0.172

In: Looking for the measured composite z-score of Cc1ccc(S(=O)(=O)N[C@H]2COC(=O)[C@@H](C)COC(=O)[C@H](C)NC(=O)CC=C[C@H]2C)cc1 , can you help?
Out: 0.027

In: For the compound COc1ccc(COC(=O)NN=C2C[C@@H](O)[C@@H](O)[C@@H]3[C@@H]4C(=O)N(C(C)(C)C)C(=O)[C@@H]4CC[C@H]23)cc1 , what composite z-score is on record?
Out: -0.1

In: Given the compound CC(C)C(=O)N[C@@H]1CCCN1C(=O)C=Cc1ccccc1 , what is its reported composite z-score?
Out: -0.0704

In: Quick one: composite z-score for CCOC(=O)NN=C1C[C@@H](O)[C@@H](O)[C@@H]2[C@@H]3C(=O)N(Cc4ccc5c(c4)OCO5)C(=O)[C@@H]3CC[C@@H]12 ?
Out: -0.006

In: What value of composite z-score has been reported for the following compound? CCOC(=O)CCN1C(=O)[C@H]2[C@H]3[C@H](O)[C@H](O)CC(=NNC(=O)OCC)[C@@H]3CC[C@H]2C1=O
Out: 0.0511

In: Need composite z-score of Cc1cc2c(nc1C)CCCN2CC(C)ON=C[C@@H](C)[C@H](OCc1ccccc1)C(C)C (some centres undefined) , thanks.
Out: -0.0125

In: Quick one: composite z-score for CO[C@H]1COC(=O)[C@H](C)NC(=O)CC=C[C@@H](C)[C@H](OC)COC(=O)CC=C[C@@H]1C ?
Out: -0.0944

====

# Tested on: Neuregulin-1 EGF-like domain
# Run description: binders of neuregulin-1 EGF-like domain, primary screen, biochemical, small-molecule microarray, 635 nm fluorescence (AID 1081);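 note: binding of the protein to compounds printed on small-molecule microarray slides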
# Condition summary: small-molecule microarray binding, higher = more signal
Please go through the items and note down their composite z-score.
// no unit string in output, number only

In: I would be grateful if you could share the reported composite z-score for CO[C@@H]1COC(=O)CC=C[C@H](C)COC(=O)[C@H](C)NC(=O)CC=C[C@H]1C .
Out: -0.139

In: Which composite z-score value is on record for CCOC(=O)CCN1C(=O)[C@H]2[C@H]3[C@H](O)[C@H](O)CC(=NNC(=O)OCC)[C@@H]3CC[C@H]2C1=O ?
Out: -0.0801

In: What value of composite z-score has been reported for the following compound? CCN1C(=O)[C@H]2[C@H]3[C@H](O)[C@H](O)CC(=NNC(=O)OCc4ccc(OC)cc4)[C@H]3CC[C@H]2C1=O
Out: -0.222

In: I have this compound here, C[C@@H](c1ccccc1)N1C(=O)[C@H]2[C@H]3[C@H](O)[C@H](O)CC(=O)[C@@H]3CC[C@H]2C1=O , and I need its recorded composite z-score.
Out: 0.603

In: Name the reported composite z-score value associated with the compound CC(C)=CCCC(C)=CCON=C1C[C@@H](O)[C@@H](O)[C@@H]2[C@@H]3C(=O)N([C@@H](C)c4ccccc4)C(=O)[C@@H]3CC[C@H]12
Out: 0.751

In: Given the entry CCCNC(=O)OC[C@H]1O[C@H](CCON=C(C)CCC(=O)OC[C@H]2O[C@H](C#Cc3ccccc3)C=C[C@@H]2Oc2ccc(C)cc2)C=C[C@@H]1Oc1ccc(OC)cc1 , report its measured composite z-score.
Out: -0.861

In: Which composite z-score value is on record for CCOC(=O)NN=C1C[C@@H](O)[C@@H](O)[C@@H]2[C@@H]3C(=O)N(Cc4ccc5c(c4)OCO5)C(=O)[C@@H]3CC[C@@H]12 ?
Out: 0.858
